Relative Rate (relative rate of hydrolysis) for assorted compounds
- TARGET SYSTEM: cholesterol esterase (Bos taurus, UniProt P30122)
- Construct: assayed with taurocholate in ether/phosphate emulsion
- Sequence (P30122 19-597): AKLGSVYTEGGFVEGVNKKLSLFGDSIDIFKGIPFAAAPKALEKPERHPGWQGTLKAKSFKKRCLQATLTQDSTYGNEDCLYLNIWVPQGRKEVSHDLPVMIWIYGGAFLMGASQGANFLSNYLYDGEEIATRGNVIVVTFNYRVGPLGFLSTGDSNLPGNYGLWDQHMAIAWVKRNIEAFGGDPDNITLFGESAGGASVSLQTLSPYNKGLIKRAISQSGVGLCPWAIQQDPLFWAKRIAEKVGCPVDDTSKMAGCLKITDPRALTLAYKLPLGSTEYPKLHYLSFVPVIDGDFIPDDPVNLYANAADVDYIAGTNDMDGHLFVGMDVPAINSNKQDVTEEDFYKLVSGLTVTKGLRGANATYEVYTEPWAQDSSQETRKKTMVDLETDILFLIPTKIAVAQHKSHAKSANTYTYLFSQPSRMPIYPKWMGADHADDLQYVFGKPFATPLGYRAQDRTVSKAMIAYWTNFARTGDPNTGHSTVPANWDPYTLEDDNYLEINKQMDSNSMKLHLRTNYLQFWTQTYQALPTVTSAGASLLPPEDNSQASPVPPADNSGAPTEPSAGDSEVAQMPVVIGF
- TEST SUMMARY: Cholesterol esterase catalyzed hydrolysis of esters, relative rate by pH stat
- Format: biochemical
- PARTICULARS: commercial cholesterol esterase, 0.1 N NaOH to hold pH 7.0, emulsion of ester (1.0 mmol) in ethyl ether (10 mL) and 10 mM phosphate buffer pH 7.0 with 30 mg sodium taurocholate
OBSERVATION TYPE: Relative Rate (relative rate of hydrolysis)

{"COMPOUND": "CCC(=O)Oc1ccc2ccccc2c1-c1c(OC(=O)CC)ccc2ccccc12", "RESULT": 1.1}
{"COMPOUND": "CC(=O)Oc1ccc2ccccc2c1-c1c(OC(C)=O)ccc2ccccc12 [acetate]", "RESULT": 1.1}
{"COMPOUND": "CC(=O)O[C@H]1CC[C@@]2(C)C(=CC[C@H]3[C@@H]4CC[C@H]([C@H](C)CCCC(C)C)[C@@]4(C)CC[C@@H]32)C1 [reference compound]", "RESULT": 1.0}
{"COMPOUND": "CCCC(=O)Oc1ccc2ccccc2c1-c1c(OC(=O)CCC)ccc2ccccc12 [Butyrate]", "RESULT": 0.5}
{"COMPOUND": "CCCCCC(=O)Oc1ccc2ccccc2c1-c1c(OC(=O)CCCCC)ccc2ccccc12 [hexanoate]", "RESULT": 0.5}
{"COMPOUND": "CCCCCCCC(=O)Oc1ccc2ccccc2c1-c1c(OC(=O)CCCCCCC)ccc2ccccc12 [octanoate]", "RESULT": 0.4}

Data origin: patent US4879421A
